System: cortical cell cultures
Test: In vitro assay of NAALADase inhibitors on ischemia (potassium cyanide and 2-deoxyglucose, LDH release)
Type: cell-based, rats
Settings: Rattus norvegicus, 1 h, read-out: EC50 (concentration required to cause a 50% reduction in glutamate toxicity following an ischemic insult)
readout_type: pEC50
Scale: negative log10 of molar concentration, which is what pEC50 denotes.

Enquiry: Input O=C(O)CCC(CP(=O)(O)O)C(=O)O (stereo not shown) [drawing 39] , output reported pEC50.
Return: 9.17

---

Quick record: pKi, NAALADase (UniProt P70627).
Scale: negative log10 of molar concentration, which is what pKi denotes.

Guide cases for pKi, answers given:
[
  {
    "compound": "O=C(O)CCCC(CP(=O)(O)O)C(=O)O (stereo not shown)",
    "endpoint_value": 6.73
  },
  {
    "compound": "O=C(O)CCC(CP(=O)(O)Cc1ccc(OCc2ccccc2)cc1)C(=O)O (stereo not shown)",
    "endpoint_value": 6.75
  },
  {
    "compound": "O=C(O)CCC(CP(=O)(O)CCC(=O)O)C(=O)O (stereo not shown)",
    "endpoint_value": 8.72
  },
  {
    "compound": "O=C(O)CCC(CP(=O)(O)Cc1ccc(F)cc1)C(=O)O (stereo not shown) [drawing 28]",
    "endpoint_value": 7.15
  }
]

Enquiry: Input O=C(O)CCC(CP(=O)(O)Cc1c(F)c(F)c(F)c(F)c1F)C(=O)O (stereo not shown) [drawing 31] , output reported pKi.
Return: 7.64

Enquiry: Input O=C(O)CCC(CP(=O)(O)CCc1ccccc1)C(=O)O (stereo not shown) [drawing 23] , output reported pKi.
Return: 6.83

Enquiry: Input CP(=O)(O)CC(CCC(=O)O)C(=O)O (stereo not shown) , output reported pKi.
Return: 5.96
